System: ULK3
run conditions: concentration: 1 μM,replicates: in singlicate; n = 1;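 also: KINOMEscan kinase panel screen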
readout: %Inh (%)

* CN1CCN(CCNc2nc3cc(Oc4ccc(NC(=O)Nc5cc(C(F)(F)F)ccc5F)cc4)ccc3[nH]2)CC1.Cl.Cl [GW768504] | 0
* C[C@@H]1CNc2c(sc3ccc4nc(-c5ccncc5)ccc4c23)C(=O)N1 | 0
* C[C@@H]1CCN(C(=O)N2CCCC2)C[C@@H]1N(C)c1ncnc2[nH]ccc12 | 70
* CN(c1cccc(CNc2nc(Nc3ccc4c(c3)CC(=O)N4)ncc2C(F)(F)F)c1)S(C)(=O)=O | 40
* Cl.Cl.NC[C@H](CC1CCCCC1)NC(=O)c1ccc(-c2ccnc3[nH]ccc23)s1 [GSK1581428] | 13
* C[C@@H]1CNc2c(sc3ccc4nc(-c5ccc(O)cc5)ccc4c23)C(=O)N1 | 24
* Cc1nnc(-c2ccc3occ(-c4ccc(S(C)=O)cc4)c3n2)o1 (stereo not shown) | 0
* O=C(Nc1cccc(C(F)(F)F)c1)c1cccc(Oc2ccc3nccn3n2)c1 | 23
* NC(=O)Nc1sc(-c2ccc(F)cc2)cc1C(N)=O [GW789449] | 55
* Cn1ccc2ncnc(Oc3ccc(NC(=O)Nc4cccc(C(F)(F)F)c4)c(F)c3)c21 | 0
* Cl.Nc1n[nH]c2cc(-c3ccccn3)ccc12 [GSK2189892] | 0
* Cc1ccn2nc(-c3ccc(F)cc3)c(-c3ccncc3)c2c1.Cl [GW457859] | 0
* COc1cc2ncn(-c3cc(OCC4CCCCC4)c(C(N)=O)s3)c2cc1OC [GSK204559] | 25
* CCOC(=O)N1CCC(n2cnc(-c3ccc(F)cc3)c2-c2ccnc(N)n2)CC1 [SB-219952] | 8
* COC(=O)c1cccc(NC(=O)NC2CCN(c3ccnc(Nc4cc(OC)c(OC)c(OC)c4)n3)C2)c1 (stereo not shown) [GSK1379767] | 58
* Cn1ccc2ncnc(Oc3ccc(NC(=O)Nc4ccnc(C(F)(F)F)c4)c(Cl)c3)c21 | 0

---

Test system: AURKC
run conditions: concentration: 1 μM,replicates: in singlicate; n = 1
readout: %Inh (%)

- CC(C)S(=O)(=O)N1CCN(Cc2ccc3c(c2)nc(NC(=O)c2ccsc2)n3C[C@H](O)c2ccccc2)CC1: 37
- CCn1c(-c2nonc2N)nc2cncc(CNC3CCNCC3)c21.Cl: 0
- Cl.c1ccc(Oc2ccc(Nc3ccnc4cc(-c5ccc(CN6CCNCC6)o5)ccc34)cc2)nc1: 27
- Cc1n[nH]c2cc(Nc3ccnc(Nc4cccc(CN5CCOCC5)c4)n3)ccc12: 93.5
- O=C(Nc1ccccc1)c1cccc(Oc2ccc3nccn3n2)c1: 28
- COc1cccc(CNC(=O)NC2CCN(c3ccnc(Nc4cc(OC)c(OC)c(OC)c4)n3)C2)c1 (stereo not shown): 79
- O=C1NCCc2[nH]c(-c3ccncc3)cc21: 11
- COC(=O)c1cccc(NC(=O)NC2CCN(c3ccnc(Nc4cc(OC)c(OC)c(OC)c4)n3)C2)c1 (stereo not shown): 73
- CCCC(=O)Nc1n[nH]c2ncccc12: 0
- COc1cc2ncn(-c3cc(OCC4CCCCC4)c(C(N)=O)s3)c2cc1OC: 60
- CSc1nccc(-c2c(-c3ccc(F)cc3)ncn2CCCN2CCOCC2)n1.Cl: 0
- O=C(Nc1cccc(C(F)(F)F)c1)c1cccc(Oc2ccc3nccn3n2)c1: 6
- COc1cc(Nc2nccc(N3CCC(NC(=O)c4cccc(C#N)c4)C3)n2)cc(OC)c1OC (stereo not shown): 56
- CS(=O)(=O)c1cccc(CNc2nc(Nc3ccc4c(c3)[C@@H]3C[C@@H]4CNC3=O)ncc2C(F)(F)F)c1: 73
- COC(=O)c1cccc(NC(=O)NC2CCN(c3ccnc(NCc4ccc(F)cc4)n3)CC2)c1: 13
- COc1ccc(Nc2nccc(N3CCC(NC(=O)c4cccc(C#N)c4)C3)n2)cc1 (stereo not shown): 22

---

System: BMPR2
run conditions: concentration: 1 μM,replicates: in singlicate; n = 1
%Inh values for the compounds below.
readout: %Inh (%)

- Cn1ccc2ncnc(Oc3ccc(NC(=O)Nc4cncc(C(F)(F)F)c4)c(Cl)c3)c21: 0
- C[C@@H]1CNc2c(sc3ccc4nc(-c5ccncc5)ccc4c23)C(=O)N1: 0
- CCn1c(-c2nonc2N)nc2cncc(Br)c21 [SB-738004]: 58
- Cn1ccc2ncnc(Oc3ccc(NC(=O)Nc4cnn(C(C)(C)C)c4)c(Cl)c3)c21: 9
- Cl.c1ccc(Oc2ccc(Nc3ccnc4cc(-c5ccc(CN6CCNCC6)o5)ccc34)cc2)nc1 [GW567142]: 2
- Cc1cccc2c(-c3ccncc3)c(-c3ccc(F)cc3)nn12.Cl [GW461487]: 0
- Cn1cc(-c2cccc3c(N)c(C(N)=O)nnc23)cn1: 72
- CS(=O)(=O)Nc1ccc(-c2ccnc3[nH]ccc23)cc1 [GSK993273]: 43
- NC(=O)c1ccc(-c2cc3ncnc(SCC(=O)O)c3s2)cc1: 0

---

Test system: FLT3
run conditions: concentration: 1 μM,replicates: in singlicate; n = 1
readout: %Inh (%)

- CN1CCN(CCNc2nc3cc(Oc4ccc(NC(=O)Nc5cc(C(F)(F)F)ccc5F)cc4)ccc3[nH]2)CC1.Cl.Cl: 98.1
- CC(=O)Nc1nc2cnc(Nc3cc(NC(=O)c4cccc(CC(C)(C)C#N)c4)ccc3C)nc2s1: 8
- Cc1nnc(-c2ccc3occ(-c4ccc(S(C)=O)cc4)c3n2)o1 (centres unmarked): 0
- CNC(=O)c1ccccc1Nc1nc(Nc2cccc(CS(C)(=O)=O)c2)ncc1C.O=CO: 99.1
- N#Cc1cccc(C(=O)NC2CCN(c3ccnc(Nc4ccc(F)cc4)n3)C2)c1 (centres unmarked): 0
- COc1cccc(CNC(=O)NC2CCN(c3ccnc(Nc4cc(OC)c(OC)c(OC)c4)n3)C2)c1 (centres unmarked): 47
- COc1cccc(C2=C(Nc3cccc(Cl)c3)C(=O)NC2=O)c1: 0
- O=c1[nH]cc(-c2ccc(O)cc2)c2sc(-c3ccncc3)cc12: 0

---

Test system: MLK3
run conditions: concentration: 1 μM,replicates: in singlicate; n = 1
%Inh values for the compounds below.
readout: %Inh (%)

• COc1cc2nccc(Nc3ccc(Oc4ccccc4)cc3)c2cc1OC.Cl = 15
• Cc1ccc(CC(=O)N2CCc3cc(-c4cn(C)c5ncnc(N)c45)ccc32)cc1 = 24
• COC(=O)c1cccc(NC(=O)NC2CCN(c3ccnc(NCc4ccc(F)cc4)n3)CC2)c1 = 0
• Cn1ccc2ncnc(Oc3ccc(NC(=O)Nc4cnn(C(C)(C)C)c4)c(Cl)c3)c21 = 0
• CC(C)c1nc(-c2cccc(NS(=O)(=O)c3ccccc3)c2)c(-c2ccnc(Nc3ccc4c(c3)CN(C)CC4)n2)s1 = 22
• CN1CCN(CCNc2nc3cc(Oc4ccc(NC(=O)Nc5cc(C(F)(F)F)ccc5F)cc4)ccc3[nH]2)CC1.Cl.Cl = 0
• CCn1c(-c2nonc2N)nc2cncc(Br)c21 = 12
• C[C@@H]1CNc2c(sc3ccc4nc(-c5ccncc5)ccc4c23)C(=O)N1 = 4

---

Test system: STK36
run conditions: concentration: 1 μM,replicates: in singlicate; n = 1
%Inh values for the compounds below.
readout: %Inh (%)

• Cn1ccc2ncnc(Oc3ccc(NC(=O)Nc4cc(C(C)(C)C)on4)c(Cl)c3)c21 = 0
• CCOC(=O)N1CCC(n2cnc(-c3ccc(F)cc3)c2-c2ccnc(N)n2)CC1 = 47
• O=C(Nc1n[nH]c2cc(-c3ccco3)ccc12)C1CC1 = 0
• CS(=O)c1ccc(-c2coc3ccc(-c4n[nH]c(=O)o4)cc23)cc1 (centres unmarked) = 0
• COc1cc2nccc(Nc3ccc(Oc4ccccc4)cc3)c2cc1OC.Cl = 0

---

Test system: BIKE
Construct: gene BMP2K
run conditions: concentration: 1 μM,replicates: in singlicate; n = 1
readout: %Inh (%)

* Cn1ccc2ncnc(Oc3ccc(NC(=O)Nc4cnn(C(C)(C)C)c4)c(Cl)c3)c21 | 19
* COc1cc(Nc2nccc(N3CCC(NC(=O)c4cccc(C#N)c4)C3)n2)cc(OC)c1OC (centres unmarked) [GSK1379751] | 90
* N#Cc1cccc(C(=O)NC2CCN(c3ccnc(Nc4ccc(F)cc4)n3)C2)c1 (centres unmarked) [GSK1379708] | 22
* COC(=O)c1cccc(NC(=O)NC2CCN(c3ccnc(Nc4cc(OC)c(OC)c(OC)c4)n3)C2)c1 (centres unmarked) [GSK1379767] | 60
* COc1cc2nccc(Nc3ccc(Oc4ccccc4)cc3)c2cc1OC.Cl [GI261656] | 6
* Cc1n[nH]c2cc(Nc3ccnc(Nc4cccc(CN5CCOCC5)c4)n3)ccc12 [GW682569] | 98.1
* CC(=O)Nc1nc2cnc(Nc3cc(NC(=O)c4cccc(CC(C)(C)C#N)c4)ccc3C)nc2s1 | 0
* C[C@@H]1CCN(C(=O)N2CCCC2)C[C@@H]1N(C)c1ncnc2[nH]ccc12 | 25
* Cl.Cl.NC[C@H](CC1CCCCC1)NC(=O)c1ccc(-c2ccnc3[nH]ccc23)s1 [GSK1581428] | 99.1
* Cl.c1ccc(Oc2ccc(Nc3ccnc4cc(-c5ccc(CN6CCNCC6)o5)ccc34)cc2)nc1 [GW567142] | 0
* CS(=O)c1ccc(-c2coc3ccc(-c4n[nH]c(=O)o4)cc23)cc1 (centres unmarked) | 17
* CCN1CCN(CCCC(=O)Nc2n[nH]c3nc(-c4ccc(O)cc4)c(Br)cc23)CC1 [SB-731579] | 9
* Cc1ccc(CC(=O)N2CCc3cc(-c4cn(C)c5ncnc(N)c45)ccc32)cc1 [GSK2634758] | 16
* Cn1ccc2ncnc(Oc3ccc(NC(=O)Nc4cccc(C(F)(F)F)c4)c(Cl)c3)c21 | 0
* CS(=O)(=O)Nc1ccc(-c2ccnc3[nH]ccc23)cc1 [GSK993273] | 97.5
* CC(C(=O)NC1CCN(c2ccnc(Nc3ccc(F)cc3)n2)C1)c1ccc(Cl)cc1 (centres unmarked) [GSK1379713] | 16
* CN1CCN(CCCNc2nccc(-c3c(-c4ccc(F)cc4)nn4cc(C(N)=O)ccc34)n2)CC1 [GW622475] | 26
* COc1cc2c(Nc3ccc(NC(=O)c4ccccc4)cc3)ncnc2cc1OCCCN1CCOCC1 [GSK301329] | 28
* Cn1ccc2ncnc(Oc3ccc(NC(=O)Nc4cncc(C(F)(F)F)c4)c(Cl)c3)c21 | 0
* C[C@@H](Oc1cc(-n2cnc3cc(-c4cnn(C)c4)ccc32)sc1C(N)=O)c1ccccc1Cl [GSK580432] | 100
